Numbers sourced from patent USRE47150.

# TESTED SYSTEM: T1, human tissue factor pathway inhibitor (TFPI) (human, UniProt P10646 29-304, limits assumed)
# T1 construct: bought; also called hTFPI; human TFPI
# T1 sequence (looked up): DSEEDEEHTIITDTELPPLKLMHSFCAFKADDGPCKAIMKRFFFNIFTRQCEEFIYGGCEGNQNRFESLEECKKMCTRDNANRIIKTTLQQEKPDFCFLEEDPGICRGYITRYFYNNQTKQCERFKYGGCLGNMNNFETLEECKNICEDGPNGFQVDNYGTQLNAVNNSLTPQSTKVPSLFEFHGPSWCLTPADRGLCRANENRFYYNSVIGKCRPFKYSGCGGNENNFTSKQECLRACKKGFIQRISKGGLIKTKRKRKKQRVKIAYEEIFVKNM
# ASSAY PROCEDURE: SPR, TFPI immobilized
Reported pKd values for a set of binders
Answer as the number alone; pKd is minus log10 of concentration in mol/L.

Consider the reported pKd for these binders:
2A8-200 (HC S35D+S55R+K99L/LC Y48F+N51V+D91W) (Fab, V domains shown) VH: QVQLVESGGGLVQPGGSLRLSCAASGFTFRSYGMDWVRQAPGKGLEWVSSIRGSRSSTYYADSVKGRFTISRDNSKNTLYLQMNSLRAEDTAVYYCARLYRYWFDYWGQGTLVTVSS VL: DIELTQPPSVSVAPGQTARISCSGDNLRNYYAHWYQQKPGQAPVVVIFYDVNRPSGIPERFSGSNSGNTATLTISGTQAEDEADYYCQSWWDGVPVFGGGTKLTVLG: 10.46
2A8 wild-type Fab (Fab, V domains shown, Fab with c-myc (or HA, or none) and 6xHis tag at the C-terminus of the heavy chain; also called 2A8wt; 2A8 wt) VH: QVQLVESGGGLVQPGGSLRLSCAASGFTFRSYGMSWVRQAPGKGLEWVSSIRGSSSSTYYADSVKGRFTISRDNSKNTLYLQMNSLRAEDTAVYYCARKYRYWFDYWGQGTLVTVSS VL: DIELTQPPSVSVAPGQTARISCSGDNLRNYYAHWYQQKPGQAPVVVIYYDNNRPSGIPERFSGSNSGNTATLTISGTQAEDEADYYCQSWDDGVPVFGGGTKLTVLG: 8.73
2A8-127 (HC S35D+K99L/LC Y48F+N51V+G56D+V96W) (Fab, V domains shown) VH: QVQLVESGGGLVQPGGSLRLSCAASGFTFRSYGMDWVRQAPGKGLEWVSSIRGSSSSTYYADSVKGRFTISRDNSKNTLYLQMNSLRAEDTAVYYCARLYRYWFDYWGQGTLVTVSS VL: DIELTQPPSVSVAPGQTARISCSGDNLRNYYAHWYQQKPGQAPVVVIFYDVNRPSDIPERFSGSNSGNTATLTISGTQAEDEADYYCQSWDDGVPWFGGGTKLTVLG: 10.08
2A8-g200 (HC Q1E+R30S+S35D+S55R+S56G+K99L/LC D1S+I2Y+A13S+S21T+R28P+N29K+Y48F+N51V+E80M+S89A+D91W+D92S+G93S+V94T) (Fab, V domains shown) VH: EVQLVESGGGLVQPGGSLRLSCAASGFTFSSYGMDWVRQAPGKGLEWVSSIRGSRGSTYYADSVKGRFTISRDNSKNTLYLQMNSLRAEDTAVYYCARLYRYWFDYWGQGTLVTVSS VL: SYELTQPPSVSVSPGQTARITCSGDNLPKYYAHWYQQKPGQAPVVVIFYDVNRPSGIPERFSGSNSGNTATLTISGTQAMDEADYYCQAWWSSTPVFGGGTKLTVLG: 10.23
2A8-216 (HC S31V+I51D+S55R+K99V/LC Y48F+D91L+V96W) (Fab, V domains shown) VH: QVQLVESGGGLVQPGGSLRLSCAASGFTFRVYGMSWVRQAPGKGLEWVSSDRGSRSSTYYADSVKGRFTISRDNSKNTLYLQMNSLRAEDTAVYYCARVYRYWFDYWGQGTLVTVSS VL: DIELTQPPSVSVAPGQTARISCSGDNLRNYYAHWYQQKPGQAPVVVIFYDNNRPSGIPERFSGSNSGNTATLTISGTQAEDEADYYCQSWLDGVPWFGGGTKLTVLG: 10.33

Need pKd of 2A8-143 (HC S35D+S55R+K99L/LC Y48F+N51V+D91L+V96W) (Fab, V domains shown) VH: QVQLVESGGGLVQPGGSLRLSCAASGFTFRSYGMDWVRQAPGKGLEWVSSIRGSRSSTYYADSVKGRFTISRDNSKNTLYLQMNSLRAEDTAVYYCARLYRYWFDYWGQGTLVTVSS VL: DIELTQPPSVSVAPGQTARISCSGDNLRNYYAHWYQQKPGQAPVVVIFYDVNRPSGIPERFSGSNSGNTATLTISGTQAEDEADYYCQSWLDGVPWFGGGTKLTVLG , thanks.
10.44

Need pKd of 2A8-g216 (HC S31V+I51D+S55R+K99V/LC D1S+I2Y+A13S+S21T+R28P+N29K+Y48F+N51S+E80M+D91L+D92S+V94T+V96W) (Fab, V domains shown) VH: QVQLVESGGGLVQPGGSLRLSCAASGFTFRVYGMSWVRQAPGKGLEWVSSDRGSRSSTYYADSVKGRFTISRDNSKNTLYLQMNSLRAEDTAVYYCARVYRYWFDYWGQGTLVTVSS VL: SYELTQPPSVSVSPGQTARITCSGDNLPKYYAHWYQQKPGQAPVVVIFYDSNRPSGIPERFSGSNSGNTATLTISGTQAMDEADYYCQSWLSGTPWFGGGTKLTVLG , thanks.
10.44

Need pKd of 2A8-227 (HC S35D+K99L/LC Y48F+D91L+V96W) (Fab, V domains shown) VH: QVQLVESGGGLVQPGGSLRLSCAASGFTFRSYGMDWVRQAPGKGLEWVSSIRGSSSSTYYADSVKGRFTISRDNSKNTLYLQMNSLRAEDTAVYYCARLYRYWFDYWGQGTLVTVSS VL: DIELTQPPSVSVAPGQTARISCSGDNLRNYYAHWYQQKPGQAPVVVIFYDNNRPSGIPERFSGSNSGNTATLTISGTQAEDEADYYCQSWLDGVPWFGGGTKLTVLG , thanks.
10.43
